Biological target: T1, LexA (DinR) wild type (Bacillus subtilis, UniProt P31080 1-205)
T1 sequence: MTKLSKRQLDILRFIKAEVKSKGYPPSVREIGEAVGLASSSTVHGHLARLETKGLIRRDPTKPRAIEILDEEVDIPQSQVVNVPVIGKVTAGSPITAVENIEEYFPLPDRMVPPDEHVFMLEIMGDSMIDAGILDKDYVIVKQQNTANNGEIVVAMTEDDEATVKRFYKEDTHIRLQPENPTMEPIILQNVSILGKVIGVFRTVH
Assay: competition EMSA
pKi: −log10 of the molar value.

{"BINDER": "recA op T5C,T7A (dsDNA) DNA 1: GGGGGGCGAACAAGCGTTCGCCCCCC DNA 2: GGGGGGCGAACGCTTGTTCGCCCCCC", "pKi": 9.21}
